Can you tell me Kd for the items I'm about to list?
Molecular target: T1, recombinant human Tau monomer, 2N4R isoform (amino acids 2-441) (human, UniProt P10636-8 2-441)
T1 construct: range 2-441; N-terminal His-tag removed with TEV protease; also called monomeric Tau
T1 sequence (P10636 other isoform, or with tags, fused parts or gaps limits assumed): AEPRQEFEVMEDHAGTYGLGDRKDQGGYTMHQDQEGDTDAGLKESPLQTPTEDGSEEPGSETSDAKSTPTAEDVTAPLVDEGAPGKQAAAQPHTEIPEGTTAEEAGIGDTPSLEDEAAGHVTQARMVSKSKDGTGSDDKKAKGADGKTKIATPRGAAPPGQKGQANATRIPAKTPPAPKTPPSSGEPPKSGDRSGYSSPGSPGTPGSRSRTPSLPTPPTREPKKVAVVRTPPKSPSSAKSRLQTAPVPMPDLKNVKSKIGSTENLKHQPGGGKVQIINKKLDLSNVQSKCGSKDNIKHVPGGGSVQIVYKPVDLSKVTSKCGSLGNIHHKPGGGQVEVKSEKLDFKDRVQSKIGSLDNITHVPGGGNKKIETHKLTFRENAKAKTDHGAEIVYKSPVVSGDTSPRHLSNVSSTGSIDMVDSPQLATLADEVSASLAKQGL
Assay: SPR, captured IgG, Tau monomer analyte, 1:1 model; fit-quality column: Yes
Method: Briefly, IgGs in 1 mL culuture were captured using tip columns that were custom packed with 20 μL MabSelect SuRe resin (Glygen Corp & GE Healthcare). […] The antibodies were assessed using a human antibody capture CM5 Series S chip generated using the GE Biacore human IgG capture kit and a Biacore T200 instrument. […] Binding to Tau monomer at 0 nM, 26.5 nM and 265 nM, at 25° C., using a flow rate of 40 μl/min, was monitored for a 180 second association phase followed by a 300 second dissociation phase. […]
Field note: include the unit after the figure.

query: Recorded Kd for hu37D3-H9.v31.5 (antibody, V domains shown) VH: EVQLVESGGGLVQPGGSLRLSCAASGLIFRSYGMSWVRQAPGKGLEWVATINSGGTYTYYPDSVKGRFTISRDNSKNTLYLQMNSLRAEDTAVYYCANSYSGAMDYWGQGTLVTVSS VL: DDVLTQTPLSLPVTPGQPASISCRSSQSIVHSNAFTYFEWYLQKPGQSPQLLIYKVSNRFSGVPDRFSGSGSGTDFTLKISRVEAEDVGVYYCFQGSLVPWTFGQGTKVEIK , please?
result: 15.2 nM

query: Recorded Kd for hu37D3.v28.E1 (antibody, V domains shown) VH: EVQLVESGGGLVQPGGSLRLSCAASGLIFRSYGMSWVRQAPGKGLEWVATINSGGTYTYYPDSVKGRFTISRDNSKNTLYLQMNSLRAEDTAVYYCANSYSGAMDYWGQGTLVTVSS VL: DDVLTQTPLSLPVTPGQPASISCRSSQSIVNSNGNTYFEWYLQKPGQSPQLLIYKVSNRFSGVPDRFSGSGSGTDFTLKISRVEAEDVGVYYCFQGSLVPWTFGQGTKVEIK , please?
result: 20.1 nM

query: Recorded Kd for hu37D3.v28 (antibody, V domains shown) VH: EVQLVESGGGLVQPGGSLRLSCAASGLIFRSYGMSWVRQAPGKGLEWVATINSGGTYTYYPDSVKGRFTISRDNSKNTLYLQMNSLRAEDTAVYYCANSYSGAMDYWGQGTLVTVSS VL: DDVLTQTPLSLPVTPGQPASISCRSSQSIVHSNGNTYFEWYLQKPGQSPQLLIYKVSNRFSGVPDRFSGSGSGTDFTLKISRVEAEDVGVYYCFQGSLVPWTFGQGTKVEIK , please?
result: 0.9 nM

query: Recorded Kd for hu37D3.v28.A20 (antibody, V domains shown) VH: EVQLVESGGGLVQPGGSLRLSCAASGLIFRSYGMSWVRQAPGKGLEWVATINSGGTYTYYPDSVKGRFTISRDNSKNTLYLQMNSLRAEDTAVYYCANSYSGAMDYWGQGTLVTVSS VL: DVVLTQTPLSLPVTPGQPASISCRSSQSIVHSNGNTYLEWYLQKPGQSPQLLIYKVSNRFSGVPDRFSGSGSGTDFTLKISRVEAEDVGVYYCFQGSLVPWTFGQGTKVEIK , please?
result: 7.1 nM

query: Recorded Kd for hu37D3.v28.A18 (antibody, V domains shown) VH: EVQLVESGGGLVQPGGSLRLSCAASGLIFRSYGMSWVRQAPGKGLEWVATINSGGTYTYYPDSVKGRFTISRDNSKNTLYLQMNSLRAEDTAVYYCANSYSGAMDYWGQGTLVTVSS VL: DVVLTQTPLSLPVTPGQPASISCRSSQSIVHSNGNTYFEWYLQKPGQSPQLLIYKVSNRFSGVPDRFSGSGSGTDFTLKISRVEAEDVGVYYCFQGSHVPWTFGQGTKVEIK , please?
result: 17.3 nM

Reference source for all entries: patent US20190367592A1
